# studyTarget: UniProt:P29466
# Sequence (P29466 120-297 limits assumed): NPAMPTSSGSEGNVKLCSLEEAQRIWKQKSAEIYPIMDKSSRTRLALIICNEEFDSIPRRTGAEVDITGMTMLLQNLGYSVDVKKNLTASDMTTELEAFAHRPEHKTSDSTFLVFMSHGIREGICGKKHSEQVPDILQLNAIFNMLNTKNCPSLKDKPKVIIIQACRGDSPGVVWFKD
# Sequence (P29466 317-404 limits assumed): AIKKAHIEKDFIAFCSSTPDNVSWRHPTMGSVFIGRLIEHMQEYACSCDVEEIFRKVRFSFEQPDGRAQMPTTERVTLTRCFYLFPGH
# testDetails: Inhibition of human recombinant IL-1 beta converting enzyme
measurementType: Ki (µM)

These recorded examples may help you get a feel for the data.
compound	Ki [µM]
CCCCNCC(=O)[C@H](CC(=O)O)NC(=O)C(CC)n1cccc(NC(=O)c2ccc3ccccc3c2)c1=O (stereo partly specified)	0.00076
CCC(C(=O)NC(CC(=O)O)C(=O)CN1CCCC1)n1cccc(NC(=O)c2ccc3ccccc3c2)c1=O (stereo unspecified)	0.0073

a: CCCCN(CC)CC(=O)[C@H](CC(=O)O)NC(=O)C(CC)n1cccc(NC(=O)c2ccc3ccccc3c2)c1=O (stereo partly specified)
b: CCC(C(=O)N[C@@H](CC(=O)O)C(=O)CN(C)[C@@H](Cc1ccccc1)C(N)=O)n1cccc(NC(=O)c2ccc3ccccc3c2)c1=O (stereo partly specified)
c: CCCC(=O)NCC(=O)C(CC(=O)O)NC(=O)C(CC)n1cccc(NC(=O)c2ccc3ccccc3c2)c1=O (stereo unspecified)
d: CCC(C(=O)NC(CC(=O)O)C(=O)CN1CCOCC1)n1cccc(NC(=O)c2ccc3ccccc3c2)c1=O (stereo unspecified)
With regard to Ki, arrange the entries in ascending order, please. Form entry: ranked labels (order as requested). a, d, c, b
(a: 0.0023 µM, d: 0.045 µM, c: 0.081 µM, b: 0.255 µM)

P: CCC(C(=O)NC(CC(=O)O)C(=O)CNC(C)=O)n1cccc(NC(=O)c2ccc3ccccc3c2)c1=O (stereo unspecified)
Q: CCC(C(=O)N[C@@H](CC(=O)O)C(=O)CNCc1ccccc1)n1cccc(NC(=O)c2ccc3ccccc3c2)c1=O (stereo partly specified)
R: CCC(C(=O)N[C@@H](CC(=O)O)C(=O)CN[C@H](Cc1ccccc1)C(N)=O)n1cccc(NC(=O)c2ccc3ccccc3c2)c1=O (stereo partly specified)
S: CCC(C(=O)NC(CC(=O)O)C(=O)CN1CCC(C(N)=O)CC1)n1cccc(NC(=O)c2ccc3ccccc3c2)c1=O (stereo unspecified)
T: CCC(C(=O)N[C@@H](CC(=O)O)C(=O)CNCCCc1ccccc1)n1cccc(NC(=O)c2ccc3ccccc3c2)c1=O (stereo partly specified)
Order the records, beginning with the lowest Ki and ending with the highest. List each label, following the requested order. T, Q, S, R, P
(T: 0.00115 µM, Q: 0.00305 µM, S: 0.0116 µM, R: 0.025 µM, P: 0.117 µM)

A: CCC(C(=O)NC(CC(=O)O)C(=O)CN1CCCCC1)n1cccc(NC(=O)c2ccc3ccccc3c2)c1=O (stereo unspecified)
B: CCC(C(=O)NC(CC(=O)O)C(=O)CN1CCSCC1)n1cccc(NC(=O)c2ccc3ccccc3c2)c1=O (stereo unspecified)
// compare measured Ki, left A , right B , return larger Give the label of your selection. B

1: CCCCN(C)CC(=O)[C@H](CC(=O)O)NC(=O)C(CC)n1cccc(NC(=O)c2ccc3ccccc3c2)c1=O (stereo partly specified)
2: CCC(C(=O)NC(CC(=O)O)C(=O)Cn1ccccc1=O)n1cccc(NC(=O)c2ccc3ccccc3c2)c1=O (stereo unspecified)
// which entry reports the smaller Ki, 1 or 2 ? Your answer should be the label attached to the chosen record. 1
